I'd appreciate it if you could supply pIC50 values for the items below.
Biological target: Integrin alpha-V/beta-3 (Homo sapiens, UniProt P05106+P06756)
Sequence (P05106 27-788 limits assumed): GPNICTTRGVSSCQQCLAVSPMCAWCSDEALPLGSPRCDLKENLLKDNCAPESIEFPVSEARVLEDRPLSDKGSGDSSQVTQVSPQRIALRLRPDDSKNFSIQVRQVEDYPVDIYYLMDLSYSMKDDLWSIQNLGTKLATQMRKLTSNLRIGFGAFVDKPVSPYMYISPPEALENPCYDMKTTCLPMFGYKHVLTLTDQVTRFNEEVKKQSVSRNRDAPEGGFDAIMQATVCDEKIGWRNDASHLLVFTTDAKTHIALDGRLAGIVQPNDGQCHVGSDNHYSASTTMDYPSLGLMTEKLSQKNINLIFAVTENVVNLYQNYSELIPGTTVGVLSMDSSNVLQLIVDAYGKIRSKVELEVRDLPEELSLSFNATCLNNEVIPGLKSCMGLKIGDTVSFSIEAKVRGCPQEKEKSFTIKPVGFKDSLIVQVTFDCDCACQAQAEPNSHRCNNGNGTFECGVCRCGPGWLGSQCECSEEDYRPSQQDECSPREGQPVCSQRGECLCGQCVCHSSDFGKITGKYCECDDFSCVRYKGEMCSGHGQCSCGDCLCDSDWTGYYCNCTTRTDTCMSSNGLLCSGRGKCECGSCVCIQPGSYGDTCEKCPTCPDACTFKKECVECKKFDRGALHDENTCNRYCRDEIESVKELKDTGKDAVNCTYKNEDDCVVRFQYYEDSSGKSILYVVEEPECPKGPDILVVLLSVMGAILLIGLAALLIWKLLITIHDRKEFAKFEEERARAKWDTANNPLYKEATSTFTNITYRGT
Sequence (P06756 31-889 limits assumed): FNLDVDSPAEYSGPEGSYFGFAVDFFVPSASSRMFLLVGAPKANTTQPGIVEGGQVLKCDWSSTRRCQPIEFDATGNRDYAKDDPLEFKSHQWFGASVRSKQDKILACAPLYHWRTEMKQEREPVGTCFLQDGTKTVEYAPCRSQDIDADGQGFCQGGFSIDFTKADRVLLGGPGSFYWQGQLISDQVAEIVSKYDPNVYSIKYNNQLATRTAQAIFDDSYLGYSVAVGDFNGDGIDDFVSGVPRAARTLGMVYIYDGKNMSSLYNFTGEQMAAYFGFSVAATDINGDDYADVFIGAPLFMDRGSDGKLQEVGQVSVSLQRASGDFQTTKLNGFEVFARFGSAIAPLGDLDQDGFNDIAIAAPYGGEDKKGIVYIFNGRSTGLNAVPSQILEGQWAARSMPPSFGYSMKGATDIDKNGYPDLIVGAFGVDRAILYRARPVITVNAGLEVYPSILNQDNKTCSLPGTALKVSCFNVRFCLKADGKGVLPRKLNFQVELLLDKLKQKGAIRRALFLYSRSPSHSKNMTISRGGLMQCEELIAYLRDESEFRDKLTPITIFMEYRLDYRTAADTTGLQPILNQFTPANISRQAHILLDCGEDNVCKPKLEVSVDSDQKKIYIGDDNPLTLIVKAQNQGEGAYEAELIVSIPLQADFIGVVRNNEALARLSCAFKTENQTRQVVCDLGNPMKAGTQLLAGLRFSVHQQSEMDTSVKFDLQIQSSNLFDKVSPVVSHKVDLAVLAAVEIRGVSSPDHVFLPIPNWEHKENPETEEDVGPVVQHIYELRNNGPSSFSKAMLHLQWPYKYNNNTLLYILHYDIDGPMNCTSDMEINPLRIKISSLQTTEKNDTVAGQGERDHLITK
Sequence (P06756 891-1048 limits assumed): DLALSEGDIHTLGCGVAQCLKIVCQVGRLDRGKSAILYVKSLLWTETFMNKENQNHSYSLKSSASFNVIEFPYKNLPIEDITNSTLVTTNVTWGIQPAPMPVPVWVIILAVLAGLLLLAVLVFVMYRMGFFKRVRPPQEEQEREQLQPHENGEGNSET
Test: Inhibition of binding to human alpha V beta3
Give bare numbers, as −log10 of the molar value.

Answered cases to consult:
O=C(O)C[C@H](NC(=O)CCCCc1ccc2c(n1)NCCC2)c1cnc2ccccc2c1 = 8.80
O=C(O)CCNC(=O)CNC(=O)CCCc1ccc2c(n1)NCCC2 = 7.32
O=C(O)C[C@H](NC(=O)CCCCc1ccc2c(n1)NCCC2)c1ccc2c(c1)OCO2 = 8.82
O=C(O)C[C@H](NC(=O)CCCCc1ccc2c(n1)NCCC2)c1cncnc1 = 8.48
O=C(O)CCNC(=O)CCCCc1ccc2c(n1)NCCC2 = 6.30

Please supply pIC50 for each of the following items, keeping them in order.
1. O=C(O)C[C@H](NC(=O)CCCCc1ccc2c(n1)NCCC2)c1ccc2c(c1)OCC2
2. O=C(O)C[C@H](NC(=O)CNC(=O)CCCc1ccc2c(n1)NCCC2)c1cnc2ccccc2c1
3. O=C(O)C[C@H](NC(=O)CCCCc1ccc2c(n1)NCCC2)c1ccc2nc(O)oc2c1
4. O=C(O)C[C@H](NC(=O)CCCCc1ccc2c(n1)NCCC2)c1cccc(F)c1
5. O=C(O)C[C@H](NC(=O)CCCCCc1ccc2c(n1)NCCC2)c1cnc2ccccc2c1
6. O=C(O)C[C@H](NC(=O)CCCCCCc1ccc2c(n1)NCCC2)c1cnc2ccccc2c1

[8.52, 9.17, 7.88, 7.64, 8.23, 8.24]

###

Test: Compound was tested for its ability of plasma clearance when administered in dog perorally (1 mg/kg) and intravenously (0.2 mg/kg)
Assay type: ADME, organism-based, Canis lupus familiaris
Conditions: iv
Checkbox rule: clearance lower than 6 mL/min/kg = MET; clearance not lower than 6 mL/min/kg = NOT MET.

Example cases with answers are listed next.
O=C(O)C[C@H](NC(=O)CCCCc1ccc2c(n1)NCCC2)c1cccc(F)c1 = MET
O=C(O)C[C@H](NC(=O)CCCCc1ccc2c(n1)NCCC2)c1ccc2nc(O)oc2c1 = NOT MET
O=C(O)C[C@H](NC(=O)CCCCc1ccc2c(n1)NCCC2)c1ccc2c(c1)OCO2 = MET
O=C(O)C[C@H](NC(=O)CCCCc1ccc2c(n1)NCCC2)c1cncnc1 = NOT MET
O=C(O)C[C@H](NC(=O)CCCCc1ccc2c(n1)NCCC2)c1ccc2c(c1)OCC2 = MET

Turning now to a further molecule:
Say whether its clearance is strictly beneath 6 mL/min/kg. Entry: O=C(O)C[C@H](NC(=O)CCCCc1ccc2c(n1)NCCC2)c1cnc2ccccc2c1
MET

###

Experiment: Compound was tested for plasma half life when administered in dog perorally (1 mg/kg) and intravenously (0.2 mg/kg)
Assay type: ADME, organism-based, Canis lupus familiaris
Measured Attribute: half-life (h)
Give bare numbers, in h.

For each of the compounds below, state half-life.
1. O=C(O)C[C@H](NC(=O)CCCCc1ccc2c(n1)NCCC2)c1cccc(F)c1
2. O=C(O)C[C@H](NC(=O)CCCCc1ccc2c(n1)NCCC2)c1ccc2nc(O)oc2c1

1: 5.5; 2: 1.2

###

Exercise: state measured logP for each of the compounds provided.
Assay: Partition coefficient (logP)
Assay type: physicochemical
Conditions: octanol/water

Sample answers from the record:
O=C(O)C[C@H](NC(=O)CCCCc1ccc2c(n1)NCCC2)c1cccc(F)c1 = 0.29
O=C(O)C[C@H](NC(=O)CCCCc1ccc2c(n1)NCCC2)c1ccc2c(c1)OCO2 = 0.47
O=C(O)C[C@H](NC(=O)CCCCc1ccc2c(n1)NCCC2)c1ccc2nc(O)oc2c1 = -0.24
O=C(O)C[C@H](NC(=O)CCCCc1ccc2c(n1)NCCC2)c1cncnc1 = -1.21
O=C(O)C[C@H](NC(=O)CCCCc1ccc2c(n1)NCCC2)c1ccc2c(c1)OCC2 = 0.53

Consider O=C(O)C[C@H](NC(=O)CCCCc1ccc2c(n1)NCCC2)c1cnc2ccccc2c1 . Its measured logP is 0.76
